Entries annotated with measured GSH: Glutathione score
System: HL60 cells
Assay: AsedaSciences SYSTEMETRIC Cell Health Screen (flow cytometry toxicity profiling)
Conditions: HL60, 4 h, 5 nM–100 µM, probability 0–1, n = 2
The response must contain the number and no unit.

Please review the entries below; each comes with its answer.
[[record]]
compound = "C#Cc1cccc(Nc2c(C#N)cnc3cc(I)ccc23)c1 [Compound 32]"
tested_target = "HL60 cells"
reading = 0.98

[[record]]
compound = "C#Cc1cc(Nc2ncnc3cc(OC)c(OC)cc23)ccc1F [Compound 44]"
tested_target = "HL60 cells"
reading = 0.054

[[record]]
compound = "C#Cc1ccc(F)c(Nc2ncnc3ccc(I)cc23)c1 [Compound 34]"
tested_target = "HL60 cells"
reading = 0.044

[[record]]
compound = "CC(C)NCC(O)COc1cccc2ccccc12 (stereo not drawn) [Propranolol, reference compound]"
tested_target = "HL60 cells"
reading = 0.11

[[record]]
compound = "C#Cc1cccc(Nc2ncnc3ccc(Br)cc23)c1 [Compound 8]"
tested_target = "HL60 cells"
reading = 0.05


[Q] Can you share its GSH: Glutathione score? I mean this compound: C#Cc1cccc(Nc2ncnc3cc(OC)c(OC)cc23)c1 [Compound 1]
[A] 0.18

[Q] Check C#Cc1cc(Nc2ncnc3cc(I)ccc23)ccc1F [Compound 40] too.
[A] 0.033

[Q] For [H]/N=C(/N)N/C(=N/[H])NCCc1ccccc1 [Phenformin, reference compound] then?
[A] 0.17

[Q] Next compound up: C#Cc1cccc(Nc2ncnc3ccccc23)c1 [Compound 3]
[A] 0.98

====

System: HL60 cells
Test: AsedaSciences SYSTEMETRIC Cell Health Screen (flow cytometry toxicity profiling)
Conditions: SYSTEMETRIC Cell Health Screen; assay n=2
Quick reference for Cell Health Toxcity Profile CC (DyeCycle Violet) among some compounds
In your answer, state the number alone without any accompanying words.

Consider the reported Cell Health Toxcity Profile CC (DyeCycle Violet) for these compounds:
[[record]]
structure_smiles_string = "C#Cc1cccc(Nc2c(C#N)cnc3cc(I)ccc23)c1"
reading = 0.95

[[record]]
structure_smiles_string = "C#Cc1cccc(Nc2c(C#N)cnc3ccc(I)cc23)c1"
reading = 0.91

[[record]]
structure_smiles_string = "C#Cc1cccc(Nc2c(C#N)cnc3cc(OC)ccc23)c1"
reading = 0.81

[[record]]
structure_smiles_string = "C#Cc1cccc(Nc2c(C#N)cnc3cc(OC)c(OC)cc23)c1"
reading = 0.33

[[record]]
structure_smiles_string = "C#Cc1cccc(Nc2c(C#N)cnc3ccc(Cl)cc23)c1"
reading = 0.93

[[record]]
structure_smiles_string = "C#Cc1cccc(Nc2c(C#N)cnc3ccccc23)c1"
reading = 0.76

[[record]]
structure_smiles_string = "C#Cc1cccc(Nc2c(C#N)cnc3ccc(F)cc23)c1"
reading = 0.76

[[record]]
structure_smiles_string = "C#Cc1cccc(Nc2c(C#N)cnc3ccc(OC)cc23)c1"
reading = 0.74


[Q] Find Cell Health Toxcity Profile CC (DyeCycle Violet) (HL60 cells) for the entry "C#Cc1cccc(Nc2c(C#N)cnc3ccc(Br)cc23)c1"
[A] 0.98

[Q] Another compound to check: "C#Cc1cccc(Nc2c(C#N)cnc3ccc(S(C)(=O)=O)cc23)c1"
[A] 0.071

[Q] Another compound: "C#Cc1cccc(Nc2c(C#N)cnc3cc(Br)ccc23)c1"
[A] 0.92

[Q] Entry "C#Cc1cccc(Nc2c(C#N)cnc3cc(Cl)ccc23)c1" please
[A] 0.17
